Data credit: patent US20080226630A1

- Tested Target: T1, recombinant human fractalkine (CX3CL1; R&D systems) (human, UniProt P78423 25-100)
- T1 sequence (looked up): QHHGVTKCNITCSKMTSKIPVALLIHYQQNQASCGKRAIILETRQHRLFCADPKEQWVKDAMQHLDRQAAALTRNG
- Measurement Protocol: ELISA on recombinant human fractalkine

| Binder | binding result |
| --- | --- |
| antibody 835 (clone 835) (antibody, human IgG1, kappa, V domains shown) VH: QVQLVQSGAEVKRPGASVKVSCKASGYTFISYGFSWVRQAPGQGLEWMGWSSVYNGDTNYAQKFHGRVNMTTDTSTNTAYMELRGLRSDDTAVYFCARDRNVVLLPAAPFGGMDVWGQGTMVTVSS VL: DIQLTQSPSFLSASLEDRVTITCRASQGISSYLAWYQQKPGKAPKLLLDAASTLQSGVPSRFSGSGSGTEFTLTISSLQPEDFATYYCQQLNSYPRTFGQGTKVDIKR | no binding |
| antibody 888 (clone 888) (antibody, human IgG1, kappa, V domains shown) VH: QLQLQESGPGLVKPSETLSLTCTASGGSINSSNFYWGWIRQPPGKGLEWIGSIFYSGTTYYNPSLKSRVTISVDTSKNQFSLKLSPVTAADTAVYHCARHGFRYCNNGVCSINLDAFDIWGQGTMVTVSS VL: DIVMTQSPLSLPVTPGAPASISCRSSQSLLRTNGYNYLDWYLQKPGQSPQLLIYLGSIRASGVPDRFSGSGSGTDFTLKISRVEAEDVGVYYCMQSLQTSITFGQGTRLEIKR | no binding |
| antibody 816 (clone 816) (antibody, human IgG1, kappa, V domains shown) VH: EVQLLESGGGLVQPGGSLRLSCVASGFTFSTYAMTWVRQAPGKGLEWVSVIRASGDSEIYADSVRGRFTISRDNSKNTVFLQMDSLRVEDTAVYFCANIGQRRYCSGDHCYGHFDYWGQGTLVTVSS VL: DIVMTQSPLSLPVTPGEPASISCRSSQSLLHSDGRYYVDWYLQKPGQSPHLLIYLASNRASGVPDRFTGSGSGTDFTLKISRVEAEDVGVYYCMQGLHTPWTFGQGTKVDIKR | no binding |
